Exercise: state measured CTG-3D luminescence at 96 h for each of the compounds provided.
System: HCI-008 (organoid from a HER2-enriched breast cancer xenograft)
Test: CTG-3D luminescence at 96 h relative to day-0 seeding control (ratio to day 0); higher = more growth / less cytotoxicity; PDxO 3D drug screen, 96 h, CTG-3D normalised to day-0 seeding control.
Settings: 100 µM; days in culture: 244
Answers are plain numbers.

Consider the worked cases shown below.
COc1cc2c(Oc3ccc4[nH]c(C)cc4c3F)ncnc2cc1OCCCN1CCCC1: -0.000797
O=C(c1ccc(F)c(F)c1Nc1ccc(I)cc1F)N1CC(O)([C@@H]2CCCCN2)C1: 0.000182
CC1(C)CCC(c2ccc(Cl)cc2)=C(CN2CCN(c3ccc(C(=O)NS(=O)(=O)c4ccc(N[C@H](CCN5CCOCC5)CSc5ccccc5)c(S(=O)(=O)C(F)(F)F)c4)cc3)CC2)C1: 0.0293
C[C@H](NC(=O)CCC(F)(F)F)C(=O)N[C@@H]1C(=O)N(CCO)c2ncccc2-c2ccccc21: 1.38
CC(=O)O[C@H]1C(=O)[C@@]2(C)[C@H]([C@H](OC(=O)c3ccccc3)[C@]3(O)C[C@H](OC(=O)[C@H](O)[C@@H](NC(=O)c4ccccc4)c4ccccc4)C(C)=C1C3(C)C)[C@]1(OC(C)=O)CO[C@@H]1C[C@@H]2O: 0.58

Hi team, please reply with CTG-3D luminescence at 96 h for each item in this list.
1. Cc1cc(Nc2ncc(Cl)c(Nc3ccccc3S(=O)(=O)C(C)C)n2)c(OC(C)C)cc1C1CCNCC1
2. CC(C)n1nc(-c2ccc3oc(N)nc3c2)c2c(N)ncnc21
3. Cc1nc(-c2cn3c(n2)-c2ccc(-c4cnn(C(C)(C)C(N)=O)c4)cc2OCC3)n(C(C)C)n1
4. CC(C)(C(=O)NCC(F)(F)C(F)(F)F)C(=O)N[C@@H]1C(=O)Nc2ccccc2-c2ccccc21
5. NC1(C(=O)N[C@@H](CCO)c2ccc(Cl)cc2)CCN(c2nc[nH]c3nccc2-3)CC1

RESULT:
1: -0.00443; 2: 0.0296; 3: 0.123; 4: 0.931; 5: 0.392

---

Tested on: HCI-002 (organoid from a triple-negative breast cancer xenograft)
Assay: CTG-3D luminescence at 96 h relative to day-0 seeding control (ratio to day 0); higher = more growth / less cytotoxicity; PDxO 3D drug screen, 96 h, CTG-3D normalised to day-0 seeding control.
Details: 625 fM; days in culture: 62
Exercise: state measured CTG-3D luminescence at 96 h for each of the compounds provided.
Give bare numbers.

NC(=O)c1cccc2cn(-c3ccc([C@@H]4CCCNC4)cc3)nc12 [niraparib]: 3.34

Hi team, please reply with CTG-3D luminescence at 96 h for each item in this list.
1. C/C=C1\NC(=O)[C@H]2CSSCC/C=C/[C@H](CC(=O)N[C@H](C(C)C)C(=O)N2)OC(=O)[C@H](C(C)C)NC1=O [romidepsin]
2. CC(=O)O[C@H]1C(=O)[C@@]2(C)[C@H]([C@H](OC(=O)c3ccccc3)[C@]3(O)C[C@H](OC(=O)[C@H](O)[C@@H](NC(=O)c4ccccc4)c4ccccc4)C(C)=C1C3(C)C)[C@]1(OC(C)=O)CO[C@@H]1C[C@@H]2O [paclitaxel]
3. C=CCn1c(=O)c2cnc(Nc3ccc(N4CCN(C)CC4)cc3)nc2n1-c1cccc(C(C)(C)O)n1 [adavosertib]
4. C[C@H](NC(=O)CCC(F)(F)F)C(=O)N[C@@H]1C(=O)N(CCO)c2ncccc2-c2ccccc21 [crenigacestat]
5. Nc1ccn([C@@H]2O[C@H](CO)[C@@H](O)C2(F)F)c(=O)n1 [gemcitabine]

RESULT:
1: 3.1; 2: 2.73; 3: 2.86; 4: 2.91; 5: 2.87
